Listed here: items and their measured pKi.
Molecular target: Phenylethanolamine N-methyltransferase (Bos taurus, UniProt P10938)
Sequence (P10938 whole entry): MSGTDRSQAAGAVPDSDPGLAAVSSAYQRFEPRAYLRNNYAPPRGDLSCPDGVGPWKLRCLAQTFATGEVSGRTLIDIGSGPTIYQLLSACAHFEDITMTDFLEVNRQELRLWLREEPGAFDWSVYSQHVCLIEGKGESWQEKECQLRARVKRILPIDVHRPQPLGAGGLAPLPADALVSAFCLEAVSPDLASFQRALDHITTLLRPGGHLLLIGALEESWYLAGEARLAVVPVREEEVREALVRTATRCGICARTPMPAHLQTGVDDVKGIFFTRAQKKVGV
pKi: −log10 of the molar value.

| MOLECULE | pKi |
| --- | --- |
| C[C@H](N)Cc1ccccc1 (stereo in doubt; 1b) [DEXTROAMPHETAMINE] | 3.37 |
| NCCc1ccccc1 | 3.33 |
| CC(N)CC1CCCCCCC1 (stereo not drawn) | 4.07 |

----------
Test: Vmax/Km x100 value of the compound
MEASUREMENT NAME: Vmax/Km x100

| COMPOUND | MEASURED |
| --- | --- |
| NC[C@H](O)c1ccccc1 | 1.69 |
| NC[C@H](O)C1CCCCC1 | 2.43 |
| NC[C@@H](O)C1CCCCC1 | 1.88 |
| NCC(O)C1CCCCC1 (centres undefined) | 2.47 |
| NC[C@@H](O)C1CCCCCCC1 | 0.67 |
| NC[C@@H](O)c1ccccc1 (stereo in doubt; 9b) | 0.93 |
| NC[C@H](O)C1CCCCCCC1 | 0.88 |
| NCC(O)C1CCCCCCC1 (centres undefined) | 0.62 |
| NC[C@@H](O)c1ccccc1 (stereo in doubt; 9a) | 1.62 |

----------
Test: Vmax value was calculated in terms of nmoles of product per mg of protein per minute
Each entry below carries its reported log10 Vmax.
MEASUREMENT NAME: log10 Vmax (log10 of the value in nmol/min/mg)

| COMPOUND | MEASURED |
| --- | --- |
| NC[C@H](O)C1CCCCCCC1 | -0.42 |
| NC[C@@H](O)C1CCCCC1 | -0.19 |
| NC[C@H](O)C1CCCCC1 | 0.27 |
| NCC(O)C1CCCCC1 (centres undefined) | 0.00 |
| NCC(O)C1CCCCCCC1 (centres undefined) | -0.57 |
| NC[C@H](O)c1ccccc1 | 0.69 |
| NC[C@@H](O)c1ccccc1 (stereo in doubt; 9a) | 0.24 |
| NC[C@@H](O)C1CCCCCCC1 | -0.57 |
| NC[C@@H](O)c1ccccc1 (stereo in doubt; 9b) | -0.04 |

----------
Biological target: Phenylethanolamine N-methyltransferase (Bos taurus, UniProt P10938)
Sequence (P10938 whole entry): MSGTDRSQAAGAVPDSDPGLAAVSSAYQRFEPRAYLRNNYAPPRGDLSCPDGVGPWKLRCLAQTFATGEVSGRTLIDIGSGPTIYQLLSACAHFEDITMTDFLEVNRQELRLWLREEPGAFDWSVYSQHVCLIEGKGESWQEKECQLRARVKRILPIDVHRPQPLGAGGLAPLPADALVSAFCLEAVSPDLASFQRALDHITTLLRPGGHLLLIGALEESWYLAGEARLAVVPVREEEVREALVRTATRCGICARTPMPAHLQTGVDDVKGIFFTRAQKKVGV
Lab note - cut at 200 µM for Ki: satisfied if strictly below, not satisfied if not.

| COMPOUND | CATEGORY |
| --- | --- |
| C[C@H](N)Cc1ccccc1 (stereo in doubt; 1c) [DEXTROAMPHETAMINE] | not satisfied |
| NCCC1CCCCC1 | satisfied |
| C[C@H](N)CC1CCCCCCC1 | satisfied |
| C[C@@H](N)CC1CCCCCCC1 | satisfied |
| CC(N)Cc1ccccc1 (configuration not stated) | not satisfied |
| C[C@H](N)c1ccccc1 | satisfied |
| C[C@@H](N)C1CCCCC1 | not satisfied |
